Item-by-item account of Emax, % of reference agonist
- STUDY_SYSTEM: human OX2R (Homo sapiens, UniProt O43614)
- Construct: expressed in transfected cells; host or cells: CHO (Chinese hamster ovary) cells, grown under G418 selection
- Sequence (O43614 1-444): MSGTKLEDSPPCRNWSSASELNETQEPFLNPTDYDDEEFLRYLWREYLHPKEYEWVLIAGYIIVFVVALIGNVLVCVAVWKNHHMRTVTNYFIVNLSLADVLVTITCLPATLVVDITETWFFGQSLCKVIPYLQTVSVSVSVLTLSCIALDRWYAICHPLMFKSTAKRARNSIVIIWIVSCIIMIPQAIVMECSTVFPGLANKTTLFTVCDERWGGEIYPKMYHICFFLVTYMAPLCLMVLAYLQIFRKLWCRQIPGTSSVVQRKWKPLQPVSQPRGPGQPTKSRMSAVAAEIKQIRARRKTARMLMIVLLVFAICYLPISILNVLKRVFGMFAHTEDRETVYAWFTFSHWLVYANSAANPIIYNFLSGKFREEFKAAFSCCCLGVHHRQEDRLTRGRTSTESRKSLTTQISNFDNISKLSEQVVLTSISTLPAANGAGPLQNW
- TEST_NAME: IPOne (IP-1 accumulation) assay in CHO cells expressing human OX2R
- Type: cell-based
- CONDITION_SET: OX2R; percentage of sample raw value/mean max effect (reference compound at 1 uM with 100% activity)
- Excerpt: The utility of the compounds in accordance with the present invention as orexin receptor OX1R and/or OX2R agonists may be readily determined without undue experimentation by methodology well known in the art. […] The half-life of IP-3 is relatively short, being rapidly metabolized to inositol monophosphate (IP-1), which can be readily detected using a commercially available assay kit (IP-One; Cisbio; cat #621PAPEC) coupled with a cell line expressing the target receptor(s) of interest. […]
Give the value, in units of %, as a plain number.

Recorded Emax, % of reference agonist, per entry:
CCOC(=O)N1CC[C@@H](NS(C)(=O)=O)[C@H]1CO[C@H]1CC[C@@H](c2ccccc2)CC1 (relative stereo) [Example 4]
98.9
CC(C)OC(=O)N1CC[C@@H](NS(C)(=O)=O)[C@H]1CO[C@H]1CC[C@@H](c2ccccc2)CC1 (relative stereo) [Example 5]
92.8
CCNC(=O)N1CC[C@H](NS(C)(=O)=O)[C@@H]1CO[C@H]1CC[C@@H](c2ccccc2)CC1 (relative stereo) [Example 1]
99.6
CS(=O)(=O)N[C@H]1CCN(C(=O)NCC(F)(F)F)[C@H]1CO[C@H]1CC[C@@H](c2ccccc2)CC1 (relative stereo) [Example 10]
103.7
CS(=O)(=O)N[C@H]1CCN(C(=O)C2CC2)C1COC1CCC(c2ccccc2)CC1 (single isomer, unassigned) [Example 26]
17.1

Let us move to another entry and its Emax, % of reference agonist.
Prompt: What does the data say about its Emax, % of reference agonist? Entry: CS(=O)(=O)N[C@H]1CCN(C(=O)NC2CC2)[C@H]1CO[C@H]1CC[C@@H](c2ccccc2)CC1 (relative stereo) [Example 22]
Response: 99.6
